Numbers sourced from paper PMC10709652.

target or test system: Srs2 898 N70A (Saccharomyces cerevisiae, UniProt P12954 1-898, N70A)
Sequence (P12954 1-898 N70A): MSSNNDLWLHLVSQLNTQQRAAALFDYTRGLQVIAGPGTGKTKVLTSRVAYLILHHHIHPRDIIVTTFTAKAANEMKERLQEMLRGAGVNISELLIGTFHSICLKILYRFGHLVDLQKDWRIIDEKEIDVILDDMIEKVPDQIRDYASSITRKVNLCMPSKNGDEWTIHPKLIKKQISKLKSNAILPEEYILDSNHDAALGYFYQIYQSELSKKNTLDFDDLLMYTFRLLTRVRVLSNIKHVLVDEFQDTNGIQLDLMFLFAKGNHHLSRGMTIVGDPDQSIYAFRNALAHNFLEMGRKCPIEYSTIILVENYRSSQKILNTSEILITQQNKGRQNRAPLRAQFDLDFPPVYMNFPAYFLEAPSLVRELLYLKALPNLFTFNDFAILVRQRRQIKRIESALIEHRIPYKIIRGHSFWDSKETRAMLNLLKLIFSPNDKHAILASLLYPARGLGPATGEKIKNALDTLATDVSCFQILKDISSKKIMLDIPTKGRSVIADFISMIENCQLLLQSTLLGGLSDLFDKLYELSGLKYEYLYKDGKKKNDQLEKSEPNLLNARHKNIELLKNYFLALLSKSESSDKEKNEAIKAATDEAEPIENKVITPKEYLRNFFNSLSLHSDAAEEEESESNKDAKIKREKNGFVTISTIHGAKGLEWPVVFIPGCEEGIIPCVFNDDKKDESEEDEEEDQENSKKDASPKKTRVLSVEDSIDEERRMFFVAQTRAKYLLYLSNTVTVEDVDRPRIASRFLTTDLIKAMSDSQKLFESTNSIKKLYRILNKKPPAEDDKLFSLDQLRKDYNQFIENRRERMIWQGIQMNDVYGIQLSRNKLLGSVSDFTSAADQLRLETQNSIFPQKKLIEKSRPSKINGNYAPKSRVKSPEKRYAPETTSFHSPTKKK
assay procedure: EMSA; no ATP; 30 mM Tris-HCl pH 7.6, 100 mM KCl, 2 mM MgCl2, 1 mM DTT, 0.2 mg/mL BSA, 30 °C 10 min, no ATP; 1.3 µM (nucleotides) ssDNA, 10-100 nM protein; 10% native PAGE in
run parameters: protein: recombinant; tags: N-terminal GFP; label: 5' fluorescein
result type: pKd
Quick note: pKd means taking -log10 of the concentration in moles per liter.

pKd in this record for ATTAAGCTCTAAGCCATGAATTCAAATGACCTCTTATCAA (ssDNA) [40-nt ssDNA] : 7.52
